Property: DC50; scope: individual molecules
target: ERα in MCF7 cells (Homo sapiens (Human), UniProt P03372); assay: Test C: estrogen receptor degradation activity, ERα in cell western assay in MCF7 cells; assay type: cell-based; settings: 4 hours post compound addition, ERα in cell western, read-out: Degradation IC50
Sequence (P03372 whole entry): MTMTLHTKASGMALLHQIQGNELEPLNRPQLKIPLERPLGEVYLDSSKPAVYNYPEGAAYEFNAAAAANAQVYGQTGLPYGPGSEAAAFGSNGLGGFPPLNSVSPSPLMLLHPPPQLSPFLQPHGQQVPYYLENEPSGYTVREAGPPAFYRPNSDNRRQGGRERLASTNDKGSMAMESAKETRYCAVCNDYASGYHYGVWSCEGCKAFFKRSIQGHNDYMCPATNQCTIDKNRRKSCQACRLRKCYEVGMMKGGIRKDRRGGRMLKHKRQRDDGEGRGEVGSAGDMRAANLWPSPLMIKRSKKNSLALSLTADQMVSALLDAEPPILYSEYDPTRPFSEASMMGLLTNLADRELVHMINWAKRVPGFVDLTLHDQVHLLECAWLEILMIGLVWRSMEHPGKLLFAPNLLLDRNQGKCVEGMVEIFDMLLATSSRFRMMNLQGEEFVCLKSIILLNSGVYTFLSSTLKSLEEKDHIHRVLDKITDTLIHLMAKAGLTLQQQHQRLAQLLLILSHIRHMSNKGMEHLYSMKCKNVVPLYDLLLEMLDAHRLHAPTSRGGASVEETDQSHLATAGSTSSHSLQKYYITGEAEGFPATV

{"Smiles repr": "Oc1ccc2c(c1)C(c1ccc(O[C@H]3CCN(CCCF)C3)cc1)=C(c1ccncc1F)CC2", "Experimental system": "ERα in MCF7 cells (Homo sapiens (Human), UniProt P03372)", "DC50": "34 nM"}
{"Smiles repr": "Cc1cc(C2=C(c3ccc(O[C@H]4CCN(CCCF)C4)cc3)c3cc(O)ccc3SCC2)ccc1Cl", "Experimental system": "ERα in MCF7 cells (Homo sapiens (Human), UniProt P03372)", "DC50": "4 nM"}
{"Smiles repr": "Cc1ccc(C2=C(c3ccc(O[C@H]4CCN(CCCF)C4)cc3)c3ccc(C(=O)O)cc3SC2)c(F)c1", "Experimental system": "ERα in MCF7 cells (Homo sapiens (Human), UniProt P03372)", "DC50": "19 nM"}
{"Smiles repr": "Oc1ccc2c(c1)C(c1ccc(O[C@H]3CCN(CCCF)C3)cc1)=C(c1ccc(Cl)cc1Cl)CCS2", "Experimental system": "ERα in MCF7 cells (Homo sapiens (Human), UniProt P03372)", "DC50": "5 nM"}
{"Smiles repr": "Cc1ccc(C2=C(c3ccc(O[C@H]4CCN(CCCF)C4)cc3)c3ccc(O)c(C)c3OCC2)c(F)c1", "Experimental system": "ERα in MCF7 cells (Homo sapiens (Human), UniProt P03372)", "DC50": "6 nM"}
{"Smiles repr": "CCOc1ccc(C2=C(c3ccc(O[C@H]4CCN(CCCF)C4)cc3)c3ccc(O)cc3SC2)c(C)c1", "Experimental system": "ERα in MCF7 cells (Homo sapiens (Human), UniProt P03372)", "DC50": "0.7 nM"}
{"Smiles repr": "Cc1cc(F)ccc1C1=C(c2ccc(O[C@H]3CCN(CCCF)C3)cc2)c2cc(O)ccc2SCC1", "Experimental system": "ERα in MCF7 cells (Homo sapiens (Human), UniProt P03372)", "DC50": "3 nM"}
